- System name: Trace amine-associated receptor 1 (Homo sapiens) (UniProt Q96RJ0)
- Sequence (Q96RJ0 whole entry, looked up): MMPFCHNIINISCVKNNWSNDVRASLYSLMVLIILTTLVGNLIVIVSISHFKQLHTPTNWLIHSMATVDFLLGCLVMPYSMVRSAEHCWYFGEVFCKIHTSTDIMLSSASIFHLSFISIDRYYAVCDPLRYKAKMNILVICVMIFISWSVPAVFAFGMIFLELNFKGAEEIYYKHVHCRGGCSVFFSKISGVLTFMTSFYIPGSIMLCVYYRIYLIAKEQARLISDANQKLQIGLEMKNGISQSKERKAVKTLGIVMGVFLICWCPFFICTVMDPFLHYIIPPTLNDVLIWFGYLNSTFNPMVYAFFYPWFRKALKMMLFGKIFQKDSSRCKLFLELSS
- Method notes: human TAAR1 agonists, primary screen, Fluo-8 calcium fluorescence, CHO RD-HGA16 cells (AID 624467)
- Applied conditions: CHO RD-HGA16 TAAR1, Fluo-8 calcium fluorescence; at 3 µM; stronger effect = higher value
Out of some 360,000 compounds screened, about 3,600 (1%) were called active. This excerpt belongs to a sample that is enriched for actives.
Let's look at some molecules and their measured activation.
The reply should be a number in %, with the unit left off.

A selection of reference data follows.
>>> observed("C[N+]12CN3CN(CN(C3)C1)C2")
4.95
>>> observed("Cc1ccc2c(c1)=C/C(=C\\c1c(O)[nH]c(=O)[nH]c1=O)C(=O)N=2")
0.28
>>> observed("CCOP(=O)(OCC)C(NC(=O)NC)C(N)=O (stereo not drawn)")
1.74

Query :: Give the observed activation of O=C(CN1CCCC1=O)NCCc1ccccc1 for Trace amine-associated receptor 1 (Homo sapiens) (UniProt Q96RJ0).
Result :: 38.6

Query :: Give Trace amine-associated receptor 1 (Homo sapiens) (UniProt Q96RJ0) activation for the following molecule: Cc1cccc(N2C(=O)NC(=O)/C(=C\c3cnn(-c4ccccc4)c3)C2=O)c1
Result :: 44.9

Query :: System Trace amine-associated receptor 1 (Homo sapiens) (UniProt Q96RJ0). Read-out activation. Item O=S(=O)(c1ccccc1)N1CCC2CCNC2C1 (stereo not drawn) . Report value.
Result :: 2.18

Query :: Find the measured activation of CCN(CC)C(=O)[C@@H]1C=C2c3cccc4[nH]c(Br)c(c34)C[C@H]2N(C)C1 with Trace amine-associated receptor 1 (Homo sapiens) (UniProt Q96RJ0) as test system.
Result :: 0.25

Query :: Consider the molecule O=c1[nH]c2ccccc2n1C1CCN(C(c2ccnc3ccccc23)c2nnnn2Cc2ccccc2)CC1 (stereo not drawn) tested on Trace amine-associated receptor 1 (Homo sapiens) (UniProt Q96RJ0); state its activation.
Result :: 40.5
